These data points were gathered from patent US11058690B2.

# System: rat uterine smooth muscle
# TEST: contraction of isolated rat uterine smooth muscle strips induced by PGF2α
# Format: cell-based
# COND: PGF2α (450 nM); area under the contraction curve 10 minutes after drug; read-out: IC50, inhibition of uterine smooth muscle contraction
PARAMETER_MEASURED: IC50
Respond with the figure and its unit, in that order.

Retrieve IC50 measured for "CO/C=C(/C(=O)OC)c1ccccc1COc1cc(C(F)(F)F)nc(OC(C)C)n1" and print it.
1690 nM

Answer with reported IC50 of "CO/C=C(/C(=O)OC)c1ccccc1COc1cccc(C(F)(F)F)n1"
1200 nM

Give recorded IC50. "CNC(=O)/C(=N/OC)c1ccccc1COc1cc(C)ccc1C"
1650 nM

Supply measured IC50 of "CO/C=C(/C(=O)OC)c1ccccc1Oc1cc(Oc2ccccc2C#N)ncn1" in your reply.
1700 nM
